The values you see were collected from the Human Domainome abundance scans (Beltran et al. 2025).

B1: Gamma-crystallin D, residues 90 to 170; numbered along this chain, P07320 (parent)
chain: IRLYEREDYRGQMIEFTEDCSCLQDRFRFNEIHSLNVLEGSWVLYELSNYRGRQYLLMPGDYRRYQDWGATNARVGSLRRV

Variants of: B1
Test: abundance fitness (aPCA) (normalised: wild type 0, dead -1); higher = more abundant; growth selection in yeast, the domain comes from the species named
Details: Homo sapiens
Label scheme for abundance fitness: lower than 0.008 is criterion not met, 0.008 and above is criterion met.

Illustrative cases are given below, each with its answer.
Identify whether the reported abundance fitness of the following variant is 0.008 or greater: `R10F` criterion met

Identify whether the reported abundance fitness of the following variant is 0.008 or greater: `L44G` criterion not met

Identify whether the reported abundance fitness of the following variant is 0.008 or greater: `I32M` criterion met

Identify whether the reported abundance fitness of the following variant is 0.008 or greater: `Q54K` criterion not met

Identify whether the reported abundance fitness of the following variant is 0.008 or greater: `L23C` criterion not met

---
Identify whether the reported abundance fitness of the following variant is 0.008 or greater: `S34R` criterion not met

Identify whether the reported abundance fitness of the following variant is 0.008 or greater: `I32E` criterion not met

Identify whether the reported abundance fitness of the following variant is 0.008 or greater: `E18V` criterion not met

Identify whether the reported abundance fitness of the following variant is 0.008 or greater: `W42M` criterion not met

Identify whether the reported abundance fitness of the following variant is 0.008 or greater: `G52L` criterion not met

Identify whether the reported abundance fitness of the following variant is 0.008 or greater: `S41N` criterion not met

Identify whether the reported abundance fitness of the following variant is 0.008 or greater: `S48R` criterion not met

Identify whether the reported abundance fitness of the following variant is 0.008 or greater: `Q12H` criterion met

Identify whether the reported abundance fitness of the following variant is 0.008 or greater: `D19Y` criterion not met

Identify whether the reported abundance fitness of the following variant is 0.008 or greater: `I1A` criterion met

Identify whether the reported abundance fitness of the following variant is 0.008 or greater: `L23I` criterion not met

Identify whether the reported abundance fitness of the following variant is 0.008 or greater: `Y4W` criterion not met

Identify whether the reported abundance fitness of the following variant is 0.008 or greater: `F29H` criterion not met

Identify whether the reported abundance fitness of the following variant is 0.008 or greater: `P59H` criterion not met

Identify whether the reported abundance fitness of the following variant is 0.008 or greater: `E18M` criterion not met

Identify whether the reported abundance fitness of the following variant is 0.008 or greater: `F27C` criterion not met

Identify whether the reported abundance fitness of the following variant is 0.008 or greater: `D25Y` criterion not met

Identify whether the reported abundance fitness of the following variant is 0.008 or greater: `N49P` criterion not met

Identify whether the reported abundance fitness of the following variant is 0.008 or greater: `E18P` criterion not met

Identify whether the reported abundance fitness of the following variant is 0.008 or greater: `V43K` criterion not met

Identify whether the reported abundance fitness of the following variant is 0.008 or greater: `L3F` criterion not met
